readoutKind: melting point (°C)

INSERT INTO measurements (chemsmiles, readoutkind, assayresult) VALUES
  ('CCc1nc2cc(C(F)(F)F)c(Cl)cc2n1-c1ccc(C[C@H](C)OC(=O)NS(=O)(=O)c2ccc(C)cc2)cc1', 'melting point', 200),
  ('CC(C)(C)OC(=O)NCC(=O)OCCCNc1ccc(O)c2c1C(=O)c1c(O)cccc1C2=O', 'melting point', 152);

---

# melting point per record follows

INSERT INTO measurements (molecule, assayresult) VALUES
  ('O=C(OC1COC1)c1sccc1OS(=O)(=O)Cl', '92 to 94 °C'),
  ('O=c1c2cc(O)ccc2oc2c(CO)ccc(NCCN3CCCC3)c12', '186 to 190 °C'),
  ('CCCSc1cn(C)cc(-c2ccc(Cl)c(C(F)(F)F)c2)c1=O', '128 to 130 °C'),
  ('CN(C)c1cccc2c(S(=O)(=O)NCC(=O)N3CCC[C@H]3C(=O)OC(C)(C)C)cccc12', '60 to 67 °C'),
  ('CC(=O)N1CCN(C(=S)Nc2cc3sc(C(C)(C)C)nc3cc2N2CCC(C)CC2)CC1', '187 to 190 °C');

For `CC(C)(C)OC(=O)CN(C(=O)CN1C(=O)c2ccccc2C1=O)c1ccccc1C(=O)N1CCCc2ccccc21` the molecule record lists melting point as 150 °C

For `CCOC(=O)c1ccc(-c2ccc(OCCO)c(-c3ccc(N4CCCC4)c(C(C)(C)C)c3)c2)cc1` the molecule record lists melting point as 193 °C

For `CC(C)(C)NC(=O)N1Cc2c(-c3ccc(F)cc3)ncn2-c2ccccc21` the molecule record lists melting point as 241 to 244 °C

For O=C(O)C1=Cc2cc(Br)cc(Br)c2OC1C(F)(F)F (stereo not given) the molecule record lists melting point as 225 to 226 °C

For OCC(O)C1OC(Sc2ccccc2)C(O)C1O (stereo not given) the molecule record lists melting point as 105 to 107 °C

---

# melting point per record follows

INSERT INTO assay_data (molecule, readoutkind, assayresult) VALUES
  ('COC(=O)c1c(Cc2ccc(S(C)(=O)=O)nc2)c(=O)c2ccc(C)nc2n1-c1ccccc1', 'melting point', '217 to 218 °C');

For `Brc1ccc2nc(Br)nn2c1` the molecule record lists melting point as 201 °C

For `CCc1nc2c(C#N)cccc2n1-c1ccc(CCNC(=O)NS(=O)(=O)c2ccc(C)cc2)cc1` the molecule record lists melting point as 95 to 103 °C

For `O=C(c1ccccc1)c1ccc2sc(NCCO)nc2c1` the molecule record lists melting point as 159 °C

For `N#Cc1nc(F)c(F)c(N)c1Cl` the molecule record lists melting point as 190 to 192 °C

For `CC(C)c1ccc(-n2c(CC(=O)O)c(C(=O)O)c3cc(Oc4ccc(Cl)c(Cl)c4)ccc32)cc1` the molecule record lists melting point as 174 to 180 °C

For `COC(=O)c1nc(NC(C)=O)sc1-c1ccccc1` the molecule record lists melting point as 224 to 226 °C

For `O=c1c(Br)c(Br)cnn1Cc1ccccc1` the molecule record lists melting point as 95 to 96 °C

For COC1CCC(OC)C2=C1C=CC(O)(C(C)=O)C2 (single isomer, unassigned; (-)) the molecule record lists melting point as 130 to 132 °C

For `CN(CC(=O)O)C(=O)c1c(N)cccc1I` the molecule record lists melting point as 147 to 149 °C

For `O=C1COc2ccc(C3=Nc4ccccc4SC3)cc2N1` the molecule record lists melting point as 280 to 281 °C

For CC(C)(C)OC(=O)NC1CCC2(CC1)CSC1=C(O2)c2ccccc2C(=O)C1=O (stereo not given) the molecule record lists melting point as 224 to 225 °C

For `COc1cc2c(cc1[N+](=O)[O-])NC(=O)CN(C(=O)C(F)(F)F)C2` the molecule record lists melting point as 204 to 205 °C

---

# melting point per record follows

For `COc1cc(C=C(C)C(=O)O)ccc1O` the molecule record lists melting point as 144 to 145 °C

For `N#Cc1c(Cl)cccc1C(Cl)(Cl)Cl` the molecule record lists melting point as 121 to 122 °C

For COc1ccc(-c2c(NC(C)C(C)(C)C)c(=O)c2=O)cc1 (stereo unspecified) the molecule record lists melting point as 179 to 181 °C

For `CCOC(=O)c1cnc2cc3c(cc2c1Cl)OCO3` the molecule record lists melting point as 109 to 110 °C

For `COc1ccc2cc(CN3CCC(NC(=O)NC(=O)c4ccccc4)CC3)ccc2c1` the molecule record lists melting point as 243 to 244 °C

For `CCOC(=O)CCn1c(=O)c2ccccc2n(CCCCl)c1=O` the molecule record lists melting point as 80 to 81 °C

---

# melting point per record follows

For `N#Cc1cccc(CCN2CCN(Cc3ccc(Cl)nc3)C2=N[N+](=O)[O-])c1` the molecule record lists melting point as 204 to 206 °C

For `Cn1cc2c(nc(NC(=O)Nc3ccc(CC(=O)O)cc3)n3nc(-c4ccco4)nc23)n1` the molecule record lists melting point as > 300 °C

For `COC(=O)c1c([N+](=O)[O-])cccc1S(N)(=O)=O` the molecule record lists melting point as 227 to 229 °C

For `c1ccc2c(CCCCN3CCc4c(sc5ccccc45)C3)c[nH]c2c1` the molecule record lists melting point as 113 to 115 °C

For `C=CCNc1nc(NCC=C)nc(N2CCN(C(=S)n3ccnc3)CC2)n1` the molecule record lists melting point as 124 to 127 °C

For `Cn1ccnc1-c1ccc(/C=C/c2ccccc2F)cc1` the molecule record lists melting point as 60 to 61 °C

For `O=C(O)/C=C/C=C(c1cccc([N+](=O)[O-])c1)c1cccc([N+](=O)[O-])c1` the molecule record lists melting point as 234 to 237 °C

For `N#Cc1ccc(-n2c(=O)cc(C(F)(F)F)n(N)c2=O)cc1O` the molecule record lists melting point as > 230 °C

For `CCOC(=O)c1cn(CC)c2nc(N3CCN(C)CC3)ncc2c1=O` the molecule record lists melting point as 146 to 147 °C

For `COCCOn1nnc2ccc(Cn3ccnc3)cc21` the molecule record lists melting point as 77 °C

---

readoutKind: melting point

Sample records with melting point:
INSERT INTO results (compound, assayresult) VALUES
  ('O=C(O)c1cc(C(c2ccccc2)(c2ccccc2)c2ccccc2)ccc1O', '234 to 237 °C'),
  ('Nc1cc(C(=O)O)cc(S(N)(=O)=O)c1Sc1ccccc1', '285 °C'),
  ('CC(=NOCc1ccccc1Nc1c(Cl)ccc(C)c1Cl)C(=O)O', '166 to 171 °C');

For `CN(C)[C@H]1CC[C@H](NC(=O)OC(C)(C)C)C1` the compound record lists melting point as 65 to 67 °C

For COc1ccc(O)c(NC(=O)C(Br)c2ccccc2)c1 (stereo unspecified) the compound record lists melting point as 145 to 147 °C

---

readoutKind: melting point

Sample records with melting point:
INSERT INTO measurements (molecule, assayresult) VALUES
  ('COc1ccc2c(c1)C(=O)c1c-2c(N2CCNCC2)nc2ccccc12', '150 to 151 °C'),
  ('CCCCCCCCCCCCCc1cc(C(=O)OCCBr)c[nH]1', '67 to 69.5 °C'),
  ('CN(C)Cc1c[nH]c2ccc(OCc3ccccc3)c(Cl)c12', '137 to 139 °C'),
  ('CCOC(=O)NNc1ccc(-c2ccc(C#N)cc2)nn1', '235 °C'),
  ('CC(C)(CC(=O)O)CC(=O)N[C@H](Cc1ccc(-c2ccccc2)cc1)C(=O)NCCCCNc1ncccn1', '77 to 95 °C'),
  ('Nc1cc([N+](=O)[O-])c[nH]c1=O', '200 to 201 °C');

For `C=CC[C@H]1CC(C(=O)OCC[Si](C)(C)C)=C[C@@H](OC(C)C)[C@@H]1NC(C)=O` the molecule record lists melting point as 64 to 65 °C

For CC(C)(C)NC(=O)NC(Cc1ccccc1)C(=O)Nc1c(F)cc(F)cc1F (stereo unspecified) the molecule record lists melting point as 205 to 206 °C

For `COC(=O)NC(C)(C)c1ccc(CS(=O)(=O)c2ccc(C)c(C)c2)cc1` the molecule record lists melting point as 146 to 149 °C

For `CN(C)C=NC(=S)NC1CCN(C(=O)OC(C)(C)C)CC1` the molecule record lists melting point as 170 °C

For Cn1cncc1C(O)(c1ccc(Cl)cc1)c1ccc2c(c1)C(c1cccc(Cl)c1)OCC(=O)N2 (stereo unspecified) the molecule record lists melting point as 260 °C

For CCc1c(N2CCC(C(N)c3ccccn3)C2)c(F)c(N)c2c(=O)c(C(=O)O)cn(C3CC3F)c12 (stereo unspecified) the molecule record lists melting point as 127 to 129 °C

Value source: a melting point compilation (Tetko et al.; mined from patent text by program, amines drawn as free bases though some values may be those of a salt)
